// values below are reported pIC50
- Test system: normal CRL2120 human skin fibroblasts
- assay.method.text: Neutral red (NR) uptake cytotoxicity assay, normal CRL2120 fibroblasts
- Type: cell-based
- measurement.conditions: Skin fibroblast, 72 h incubation
pIC50: −log10 of the molar value.
measure.name: pIC50

compound	measure.name	result.comparator	recorded.result
CCCC/C=C\CCCCCCCCCCCCCC1=C(OC(C)=O)C(OC(C)=O)C(C)=C(OC(C)=O)C1OC(C)=O (centres unmarked)	pIC50	=	4.03
CCCCCCCCCCCC1=C(O)C(=O)C=C(OC)C1=O	pIC50	=	4.35
CCCCCCCCCCCCCCCC1=C(O)C(=O)C=C(O)C1=O	pIC50	<	3.91
Cc1cc(O)c2c(c1)C(=O)c1cc(O)cc(O)c1C2=O	pIC50	<	3.83
CCCCC=CCCCCCCCCCCCCCC1=C(OC)C(=O)C=C(OC)C1=O	pIC50	<	3.89
CCCCC1=C(O)C(=O)C=C(O)C1=O	pIC50	<	3.69
CC1=CC(=O)c2c(O)cccc2C1=O [Compound 4, 5-hydroxy-2-methyl-1,4-naphthalenedione]	pIC50	=	4.17
COC1=CC(=O)C(O)=C(CCCCCCCC=CCCCCCCCC2=C(O)C(=O)C(C)=C(O)C2=O)C1=O	pIC50	=	4.15
